Protocol Details: chemical genetic growth profiling, strain panel (AID 1159580);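 note: tested at 20 µM; growth read once vehicle control cultures reached saturation at 30 °C; 1 = growth at the plate median or of vehicle wells; lower values mean less growth of the strain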
Test Parameters: S. cerevisiae deletion strains, growth OD, locus YLR058C, strain SHM2, active compounds read low
The campaign covered roughly 5,500 compounds. About 2,000 (36%) were called active. Inconclusive results (about 18%) are left out. The list shows a part of the results.
Readout Type: normalized growth
Answers are plain numbers.

Solved cases below.
Compound	normalized growth
CS(=O)(=O)Nc1ccc([N+](=O)[O-])cc1Oc1ccccc1	0.966
CC12CCC(=O)C=C1CCC1C2[C@@H](O)CC2(C)C1CC[C@]2(O)C(=O)COP(=O)(O)O (stereo partly specified)	1
C/C1=C\CC(C)(C)/C=C/CC2(C)OC2CC1 (stereo unspecified)	1.01
C/C1=C/CC(C)(C)/C=C/C/C(C)=C/CC1	1.01
CC1(C)CC2C1CC[C@]1(CBr)CCC3C(CC(=O)O)C(=O)O[C@@]32C1 (stereo partly specified)	0.996
CC(=O)O[C@H]1CC[C@@]2(C)C(=CC(=O)C3C4CCC(C(C)CCCC(C)C)[C@@]4(C)CCC32)C1 (stereo partly specified)	0.999

Dear colleague, could you please provide normalized growth for the compounds listed below?
1. COc1ccc2cc(CCC(C)=O)ccc2c1
2. CC12CCC3C(CC3(C)C)C(C)(CCC1=O)O2 (stereo unspecified)

## Output
[0.948, 1.02]

---

Protocol Details: chemical genetic growth profiling, strain panel (AID 1159580)
Test Parameters: S. cerevisiae deletion strains, growth OD, locus YDL035C, strain GPR1, active compounds read low
Out of some 5,500 compounds screened, about 2,000 (36%) were called active. About 18% were inconclusive and are not listed. The list shows a part of the results.
Readout Type: normalized growth
Give bare numbers.

For orientation, consider the following solved cases.
Compound	normalized growth
C/C1=C\CC(C)(C)/C=C/CC2(C)OC2CC1 (stereo unspecified)	0.998
Cc1cc(=O)[nH]c(=S)[nH]1	0.993
CS(=O)(=O)Nc1ccc([N+](=O)[O-])cc1Oc1ccccc1	0.976
O=C(OCc1ccccc1)c1ccccc1	0.961
C/C1=C/CC(C)(C)/C=C/C/C(C)=C/CC1	0.91
CC12CCC3C(CC3(C)C)C(C)(CCC1=O)O2 (stereo unspecified)	1.01
COc1ccc([C@@H]2CC(=O)c3c(O)cc(O[C@@H]4O[C@H](CO[C@H]5O[C@@H](C)[C@H](O)[C@@H](O)[C@H]5O)[C@@H](O)[C@H](O)[C@H]4O)cc3O2)cc1O	0.991
CCOC(=O)NNc1nncc2ccccc12	0.978
C=C1C[C@]23C[C@@]1(O)CC[C@H]2[C@@]12C=C[C@H](O)[C@@](C)(C(=O)O1)[C@H]2[C@@H]3C(=O)O	0.982
Oc1c(Cl)cc(Cl)cc1Sc1cc(Cl)cc(Cl)c1O	1.05

Consider the record given below.
## Input So what's the measured normalized growth for this one? NCC(=O)c1ccccc1
## Output 1.02

---

Protocol Details: chemical genetic growth profiling, strain panel (AID 1159580)
Test Parameters: S. cerevisiae deletion strains, growth OD, locus YPR025C, strain CCL1, active compounds read low
Among all 5,500 compounds or so, about 2,000 (36%) were called active. About 18% were inconclusive and are not listed. The list shows a part of the results.
Provide the recorded normalized growth for the entries that follow.
Answers are plain numbers.

Worked examples follow.
Compound String	normalized growth
Cc1c(C)c(C)c(C(=O)c2ccc(N=Cc3cc(Cl)cc(Cl)c3O)cc2)c(C)c1C	0.937
O=S(=O)(Oc1ccc(-c2csnn2)cc1)c1ccccc1Cl	0.968
CC(C)(C)c1cc(C(=O)NNc2cccc(Cl)c2)n(Cc2ccccc2)n1	0.981
Cc1onc(-c2c(Cl)cccc2Cl)c1C(=O)O/N=C(/N)Cc1ccc(C(C)(C)C)cc1	0.986

## Input Need normalized growth of CCOC(=O)c1ccc(Cl)c(N=Cc2cc(Cl)cc(Cl)c2O)c1 , thanks.
## Output 0.947

---

Protocol Details: chemical genetic growth profiling, strain panel (AID 1159580)
Test Parameters: S. cerevisiae deletion strains, growth OD, locus YNL175C, strain NOP13, active compounds read low
About 2,000 (36%) of roughly 5,500 compounds were called active. Not shown: some 18% with an inconclusive outcome. This is one part of the list.
Kindly supply the reported normalized growth values for the records listed here.

Solved cases (3 shown):
Compound	Result
CCc1cccc(N(C)C(N)=Nc2cccc3ccccc23)c1	1.03 (inactive)
CCC1(O)CC2CN(CCc3c([nH]c4ccccc34)[C@@](C(=O)OC)(c3cc4c(cc3OC)N(C)C3[C@]45CCN4CC=C[C@@](CC)([C@@H](OC(C)=O)[C@]3(O)C(=O)OC)[C@H]45)C2)C1 (some centres undefined)	1.02 (inactive)
CC[C@@H](C)[C@H]1O[C@]2(CC[C@@H]1C)C[C@@H]1C[C@@H](C/C=C(\C)[C@@H](O[C@H]3C[C@H](OC)[C@@H](O[C@H]4C[C@H](OC)[C@@H](O)[C@H](C)O4)[C@H](C)O3)[C@@H](C)/C=C/C=C3\CO[C@@H]4[C@H](O)C(C)=C[C@@H](C(=O)O1)[C@]34O)O2	1.01 (inactive)

## Input Endpoint output: normalized growth of N=C(N)c1ccccc1 . Value?
## Output 0.999 (inactive)

---

Kindly state normalized growth for each of the entries shown.
Protocol Details: chemical genetic growth profiling, strain panel (AID 1159580);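 note: tested at 20 µM; growth read once vehicle control cultures reached saturation at 30 °C; 1 = growth at the plate median or of vehicle wells; lower values mean less growth of the strain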
Test Parameters: S. cerevisiae deletion strains, growth OD, locus YLR085C, strain ARP6, active compounds read low
The campaign covered roughly 5,500 compounds. About 2,000 (36%) were called active. Another 18% or so got no clear call; they are omitted. Some of the results follow.
Numbers only.

Use these answered entries as a reference point.
Compound String	Number
CCOC(=O)CSc1nc2cc(C(F)(F)F)cnc2n1C	1.04
CCCCCCc1cc2c(C)cc(=O)oc2cc1O	0.864
Cc1ccc(Sc2ccc([N+](=O)[O-])cc2/C=C2\SC(=S)NC2=O)cc1	0.82

## Input Need normalized growth of Cc1ccc(-c2nn[nH]n2)cc1Cl , thanks.
## Output 1

---

Protocol Details: chemical genetic growth profiling, strain panel (AID 1159580);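 note: tested at 20 µM; growth read once vehicle control cultures reached saturation at 30 °C; 1 = growth at the plate median or of vehicle wells; lower values mean less growth of the strain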
Test Parameters: S. cerevisiae deletion strains, growth OD, locus YMR058W, strain fet3, active compounds read low
Out of some 5,500 compounds screened, about 2,000 (36%) were called active. Not shown: some 18% with an inconclusive outcome. The list shows a part of the results.
Field: normalized growth. Provide a value for each of the molecules that follow.
Numbers only.

Check out these entries, answers already filled in.
Molecule	Number
NC(=O)c1cccnc1	0.979
CC(C)CCCC(C)[C@H]1CCC2C3C(=O)C=C4C[C@@H](O)CC[C@]4(C)C3CC[C@@]21C (stereo not given in full)	0.992
O=C(NCO)c1cccnc1	1
CN(C)[C@@H]1C(=O)C(C(N)=O)=C(O)[C@@]2(O)C(=O)C3=C(O)c4c(O)cccc4[C@@](C)(O)[C@H]3[C@H](O)[C@@H]12	0.977

Kindly give each listed record's normalized growth.
1. CC(C)=CCCC(C)[C@@H]1CC[C@]2(C)C3=C(CC[C@@]12C)C1(C)CC[C@H](O)C(C)(C)C1CC3 (stereo not given in full)
2. CC(=O)O[C@H]1CC[C@@]2(C)C(=CC(=O)C3C4CCC(C(C)CCCC(C)C)[C@@]4(C)CCC32)C1 (stereo not given in full)
3. CN(C)CCCN1c2ccccc2Sc2ccc(C(F)(F)F)cc21
4. Cc1cn[nH]c1

## Output
[1, 1, 0.999, 1.03]

---

Protocol Details: chemical genetic growth profiling, strain panel (AID 1159580);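 note: tested at 20 µM; growth read once vehicle control cultures reached saturation at 30 °C; 1 = growth at the plate median or of vehicle wells; lower values mean less growth of the strain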
Test Parameters: S. cerevisiae deletion strains, growth OD, locus YML124C, strain tub3, active compounds read low
The campaign covered roughly 5,500 compounds. About 2,000 (36%) were called active. Another 18% or so got no clear call; they are omitted. Some of the results follow.
Readout Type: normalized growth
Give bare numbers.

A selection of reference data follows.
Compound	normalized growth
C=C(C)C1CCC(C)(O)C2CC3OC3(C)C2C1 (stereo unspecified)	1.01
C/C1=C\CC(C)(C)/C=C/CC2(C)OC2CC1 (stereo unspecified)	1
CC(C)CC(NC(=O)OCC1c2ccccc2-c2ccccc21)C(=O)O (stereo unspecified)	1

Items follow; give normalized growth for each.
1. CN(C)[C@@H]1C(=O)C(C(N)=O)=C(O)[C@@]2(O)C(=O)C3=C(O)c4c(O)cccc4[C@@](C)(O)[C@H]3[C@H](O)[C@@H]12
2. CN(C)C(=O)Oc1cccc([N+](C)(C)C)c1

## Output
[1, 0.984]

Okay, here is my list. What is normalized growth for each of these?
1. CN(C)c1ccc(O)c2c1C[C@H]1C[C@H]3[C@H](N(C)C)C(=O)C(C(N)=O)=C(O)[C@@]3(O)C(=O)C1=C2O
2. Cc1c(C)c2c(c(C)c1O)CCC(C)(CCCC(C)CCCC(C)CCCC(C)C)O2 (stereo unspecified)
3. CCOC(=O)NNc1nncc2ccccc12
4. CC12CCC3C(CC3(C)C)C(C)(CCC1=O)O2 (stereo unspecified)
5. CCCc1cc(=O)[nH]c(=S)[nH]1
6. CN(C)CCCN1c2ccccc2CCc2ccccc21

## Output
[0.991, 0.993, 0.983, 1.02, 0.996, 0.996]
